Data origin: PubChem BioAssay (NCI)

Test system: NCI-H460 lung
Assay: NCI tumour cell line growth inhibition, 48 h
TGI values for the molecules below.

{"Molecule": "C#CCOC(=O)[C@@H](C)c1ccc2cc(OC)ccc2c1", "TGI": "> 100 µM"}
{"Molecule": "Nc1nc(Cc2ccccc2)nc(Cc2ccccc2)c1-c1ccccc1", "TGI": "> 100 µM"}
{"Molecule": "COCC(=O)NC/C=C/c1ccc2ncnc(Nc3ccc(Oc4ccc(C)nc4)c(C)c3)c2c1", "TGI": "22.3 µM"}
{"Molecule": "CCCc1n(Cc2ccc3ccccc3n2)cc[n+]1Cc1ccc2ccccc2c1", "TGI": "10.6 µM"}
{"Molecule": "COC1C(OC(C)=O)CC(=O)OC(C)C/C=C/C=C\\C(O)C(C)CC(CC=O)C1OC1OC(C)C(OC2CC(C)(O)C(OC(=O)CC(C)C)C(C)O2)C(N(C)C)C1O (stereo unspecified)", "TGI": "> 100 µM"}
{"Molecule": "O=C1CSC(c2cccc(Oc3ccccc3)c2)N1c1cccc(Cl)c1Cl (stereo unspecified)", "TGI": "71.5 µM"}
{"Molecule": "C/C(=N\\Nc1nc2ccccc2o1)c1cc2ccccc2cn1", "TGI": "> 100 µM"}
{"Molecule": "C[C@H](CO)C1=CC(C#C[Si](C)(C)C)N(C(=O)Oc2ccccc2)c2ccccc21 (stereo partly specified)", "TGI": "28.6 µM"}
{"Molecule": "C=C(C)[C@@H]1CC[C@]2(CN)CC[C@]3(C)[C@H](CC[C@@H]4[C@@]5(C)CCC(N)[C@@](C)(CO)[C@@H]5CC[C@]43C)[C@@H]12 (stereo partly specified)", "TGI": "3.51 µM"}
{"Molecule": "Cc1ccc2c(c1)-c1oc(=O)c(-c3cc4ccccc4oc3=O)cc1C(O)O2 (stereo unspecified)", "TGI": "> 100 µM"}
{"Molecule": "CO/N=C(\\C(=O)[N-][n+]1cnn(CC(=O)O)c1)c1csc(N)n1", "TGI": "> 10 µM"}
{"Molecule": "COc1ccc(OCC(C)(C)O)cc1", "TGI": "> 100 µM"}
{"Molecule": "Cc1c(C#N)c(N)n(C2OC(CO)C(O)C(O)C2O)c(=S)c1C#N (stereo unspecified)", "TGI": "> 100 µM"}
{"Molecule": "NC(Cc1c[nH]c2cc(F)ccc12)C(=O)O (stereo unspecified)", "TGI": "> 2500 µM"}
{"Molecule": "N#CC(C(=O)O)C(c1c(Cl)cccc1Cl)C(C#N)C(=O)O (stereo unspecified)", "TGI": "> 100 µM"}
{"Molecule": "COc1ccc(-c2nc(SC)n(C3OC(COC(C)=O)C(OC(C)=O)C(OC(C)=O)C3OC(C)=O)c(=O)c2C#N)cc1 (stereo unspecified)", "TGI": "> 100 µM"}
{"Molecule": "C[C@@H]1OC(=O)NN=C1c1ccc(-c2ccc(F)cc2)c(C(F)(F)F)c1", "TGI": "25.6 µM"}
{"Molecule": "CC1=CC2=C(C#N)C(=O)OC2(C)C(c2ccccc2)C1 (stereo unspecified)", "TGI": "> 100 µM"}
{"Molecule": "CCNC1=C(NC(=O)CCl)C(=O)c2ccccc2C1=O", "TGI": "57.4 µM"}
{"Molecule": "CCCCN1CCC(O)(c2cc(C(=O)O)[nH]c2-c2cc(C)no2)C1=O (stereo unspecified)", "TGI": "> 100 µM"}
{"Molecule": "CCOc1cc(/C=C2\\N=C(c3ccccc3)N(c3nc4ccccc4s3)C2=O)ccc1O", "TGI": "> 100 µM"}
{"Molecule": "C[C@]12CC/C(=N\\O)C=C1CC[C@@H]1[C@@H]2CC[C@]2(C)C(=N/O)/C(=C/c3ccncc3)C[C@@H]12", "TGI": "85 µM"}
{"Molecule": "CN(/N=C/c1ccccc1C(=O)O)C1=NCCCCN1", "TGI": "> 100 µM"}
{"Molecule": "COc1ccc(C[C@H]2NC[C@H](O)[C@H]2OC(C)=O)cc1", "TGI": "0.611 µM"}
{"Molecule": "Nc1nc(CC2(O)CCCCC2)cc(-c2ccccc2)n1", "TGI": "> 66 µM"}
{"Molecule": "CC(=O)OCCCCn1cnc2c(Cl)nc(Nc3ccccc3)nc21", "TGI": "> 100 µM"}
